{"columns": ["compound", "melting point"],
 "data": [
  ["O=C(CN1CCC(n2c(=O)[nH]c3ccccc32)CC1)Nc1ccc(-c2ccc(F)cc2)cc1 [Compound 259]", "228 to 229 °C"],
  ["Cl.N#CC(c1ccccc1)C1CCN(CC(=O)Nc2ccc(C3CCCCC3)cc2)CC1 (stereo not shown) [Compound 300]", "150 °C"],
  ["O=C(CN1CCC(n2c(=O)[nH]c3ccccc32)CC1)NCC1CCCO1 (stereo not shown) [Compound 285]", "179 to 180 °C"],
  ["CCCCCCc1ccc(NC(=O)CN2CCC(n3c(=O)[nH]c4ccccc43)CC2)cc1 [Compound 256]", "128 to 129 °C"]
]}

====

Below, each entry is listed alongside its reported pIC50.
assayed-system: Rat NPY5 receptor (Rattus norvegicus, UniProt Q63634)
Sequence (Q63634 whole entry): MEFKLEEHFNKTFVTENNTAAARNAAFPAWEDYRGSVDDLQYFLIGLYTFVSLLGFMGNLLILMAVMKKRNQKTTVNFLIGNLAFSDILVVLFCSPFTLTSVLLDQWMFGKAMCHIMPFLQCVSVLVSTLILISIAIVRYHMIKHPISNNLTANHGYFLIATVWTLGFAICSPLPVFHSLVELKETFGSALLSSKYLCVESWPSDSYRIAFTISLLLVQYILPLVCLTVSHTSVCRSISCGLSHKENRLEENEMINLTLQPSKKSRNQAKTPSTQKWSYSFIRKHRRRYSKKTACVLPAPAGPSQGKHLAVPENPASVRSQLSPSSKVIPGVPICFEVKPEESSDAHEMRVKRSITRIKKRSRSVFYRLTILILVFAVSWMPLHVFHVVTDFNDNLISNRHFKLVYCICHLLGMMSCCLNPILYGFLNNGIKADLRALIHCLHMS
test-method-notes: Rat NPY5 receptor binding assay ([125I]PYY, membrane protein)
conditions-used: [125I]PYY binding, read-out: rNPY5 IC50
pIC50: −log10 of the molar value.

{"columns": ["compound", "value-modifier", "pIC50"],
 "data": [
  ["CNC1CCN(CC(=O)Nc2ccc(C(=O)c3ccccc3)cc2)C1 (stereo not shown)", "=", 6.74],
  ["CC(C)(C)OC(=O)NC1CCN(CC(=O)Nc2ccc(C3CCCCC3)cc2)C1 (stereo not shown) [Compound 195]", "=", 7.59],
  ["CC(=CC#N)NCC(=O)Nc1ccc(C2CCCCC2)cc1", "=", 6.00],
  ["C#CC(C)(C)NCC(=O)Nc1ccc(C(=O)c2ccccc2)cc1", "=", 5.85],
  ["CN(C(=O)OC(C)(C)C)C1CCN(CC(=O)Nc2ccc(C(=O)c3ccccc3)cc2)C1 (stereo not shown)", "=", 6.72],
  ["COC(CNCC(=O)Nc1ccc(C(=O)c2ccccc2)cc1)OC", "=", 6.52],
  ["O=C(CNC1CCC1)Nc1ccc(C(=O)c2ccccc2)cc1", "=", 5.30],
  ["COC(=O)C=C(C)NCC(=O)Nc1ccc(C2CCCCC2)cc1", "=", 6.26],
  ["O=C(CNCc1ccc(C(=O)O)cc1)Nc1ccc(C(=O)c2ccccc2)cc1", "<", 5.00],
  ["COC(CNCC(=O)Nc1ccc(C2CCCCC2)cc1)OC", "=", 6.64],
  ["O=C(CNc1c(I)cc(C(=O)O)cc1I)Nc1ccc(C(=O)c2ccccc2)cc1", "=", 5.92],
  ["O=C(O)CC(NCC(=O)Nc1ccc(C(=O)c2ccccc2)cc1)C(F)(F)F (stereo not shown)", "=", 6.47],
  ["O=C(O)CC(NCC(=O)Nc1ccc(C2CCCCC2)cc1)C(F)(F)F (stereo not shown)", "=", 6.92],
  ["O=C(CNCCCn1ccnc1)Nc1ccc(C2CCCCC2)cc1", "=", 6.21],
  ["O=C(CN1CCC(CO)CC1)Nc1ccc(C2CCCCC2)cc1", "=", 6.47],
  ["C=CCC(NCC(=O)Nc1ccc(C2CCCCC2)cc1)C(=O)O (stereo not shown)", "=", 6.14],
  ["COc1cc(CCNCC(=O)Nc2ccc(C(=O)c3ccccc3)cc2)ccc1O", "=", 7.28],
  ["O=C(CN1CCC(NC(=O)C(F)(F)F)C1)Nc1ccc(C(=O)c2ccccc2)cc1 (stereo not shown)", "=", 7.30],
  ["O=C(CNCCCn1ccnc1)Nc1ccc(C(=O)c2ccccc2)cc1", "=", 5.52],
  ["O=C1C=C(NCC(=O)Nc2ccc(C3CCCCC3)cc2)CCC1", "<", 5.00],
  ["CNC1CCN(CC(=O)Nc2ccc(C3CCCCC3)cc2)C1 (stereo not shown) [Compound 193]", "=", 6.60],
  ["CCCC(CO)NCC(=O)Nc1ccc(C2CCCCC2)cc1 (stereo not shown)", "<", 5.00],
  ["O=C(CNCC1CC1)Nc1ccc(C(=O)c2ccccc2)cc1", "=", 6.16],
  ["C=CCNCC(=O)Nc1ccc(C2CCCCC2)cc1", "=", 5.42],
  ["O=C(CNCCO)Nc1ccc(C2CCCCC2)cc1", "<", 5.00]
]}

====

assayed-system: human Y4/PP1 receptor (Homo sapiens, UniProt P50391)
Sequence (P50391 whole entry): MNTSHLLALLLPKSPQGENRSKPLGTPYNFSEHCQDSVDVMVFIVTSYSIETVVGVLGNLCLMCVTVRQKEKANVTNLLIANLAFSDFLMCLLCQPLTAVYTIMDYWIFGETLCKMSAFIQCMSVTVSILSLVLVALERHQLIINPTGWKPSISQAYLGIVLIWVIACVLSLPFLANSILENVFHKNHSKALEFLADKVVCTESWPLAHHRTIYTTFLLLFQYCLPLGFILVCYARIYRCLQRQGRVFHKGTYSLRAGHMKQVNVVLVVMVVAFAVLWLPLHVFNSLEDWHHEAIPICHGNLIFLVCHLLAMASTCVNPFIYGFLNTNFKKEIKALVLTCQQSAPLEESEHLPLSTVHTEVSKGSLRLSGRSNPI
test-method-notes: Human Y4/PP1 receptor binding assay ([125I]human PP, membrane protein)
Structures can show the parent of a compound that is named as a salt.
IC50 by entry:

{"columns": ["molecule", "IC50"],
 "data": [
  ["N#CC1(c2ccccc2)CCN(CC(=O)Nc2ccc(C3CCCCC3)cc2)CC1 [Compound 295, hydrochloride]", "> 5 µM"],
  ["CCC(=O)C1(c2ccccc2)CCN(CC(=O)Nc2ccc(C3CCCCC3)cc2)CC1.Cl [Compound 303, hydrochloride]", "> 5 µM"]
]}

====

pIC50 listing for selected compounds.
assayed-system: Human NPY5 receptor (Homo sapiens, UniProt Q15761)
Sequence (Q15761 whole entry): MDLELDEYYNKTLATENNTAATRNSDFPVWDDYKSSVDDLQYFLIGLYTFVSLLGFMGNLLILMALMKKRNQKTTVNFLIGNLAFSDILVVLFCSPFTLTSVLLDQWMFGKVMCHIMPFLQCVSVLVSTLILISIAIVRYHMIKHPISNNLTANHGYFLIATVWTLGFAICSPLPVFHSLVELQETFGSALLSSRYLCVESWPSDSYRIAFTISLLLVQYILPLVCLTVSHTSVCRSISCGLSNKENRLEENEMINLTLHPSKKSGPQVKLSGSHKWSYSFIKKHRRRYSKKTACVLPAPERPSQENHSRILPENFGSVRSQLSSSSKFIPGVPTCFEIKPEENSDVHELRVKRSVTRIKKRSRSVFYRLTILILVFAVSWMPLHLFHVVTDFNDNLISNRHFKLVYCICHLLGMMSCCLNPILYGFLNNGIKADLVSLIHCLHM
test-method-notes: Human NPY5 receptor binding assay ([125I]PYY, membrane protein)
conditions-used: [125I]PYY, read-out: hNPY5 IC50
pIC50: −log10 of the molar value.
readout: pIC50

{"columns": ["compound", "readout-value"],
 "data": [
  ["O=C(CNCCCn1c(=O)[nH]c2ccccc21)Nc1ccc(C2CCCCC2)cc1 [Compound 276]", 5.96],
  ["CC(=O)NC1CCN(CC(=O)Nc2ccc(C3CCCCC3)cc2)C1 (stereo not drawn) [Compound 290]", 7.42],
  ["CCC(=O)C1(c2ccccc2)CCN(CC(=O)Nc2ccc(C3CCCCC3)cc2)CC1.Cl [Compound 303, hydrochloride]", 8.40],
  ["O=C(CN1CCN(c2ccccc2Cl)CC1)Nc1ccc(C2CCCCC2)cc1.O=C(O)C(=O)O [Compound 299]", 6.85],
  ["O=C(CN1CCC(n2c(=O)[nH]c3ccccc32)CC1)Nc1ccc(Cl)cc1 [Compound 358, reference compound]", 6.14],
  ["CCc1cc(Br)c(NC(=O)CN2CCC(n3c(=O)[nH]c4ccccc43)CC2)c(Br)c1 [Compound 330, reference compound]", 6.36],
  ["CCOc1ccc(NC(=O)CN2CCC(n3c(=O)[nH]c4ccccc43)CC2)cc1 [Compound 347, reference compound]", 6.84],
  ["Cl.O=C(CN1CCC(n2c(=O)[nH]c3ccccc32)CC1)Nc1ccc(C(=O)c2ccccc2)cc1 [Compound 263, hydrochloride]", 8.40],
  ["O=C(CN1CCC(n2c(=O)[nH]c3ccccc32)CC1)Nc1ccc(-c2cnco2)cc1 [Compound 267, hydrate]", 6.82],
  ["O=C(CN1CCC(n2c(=O)[nH]c3ccccc32)CC1)Nc1ccc(Nc2ccccc2)cc1 [Compound 337, reference compound]", 7.02],
  ["Cl.O=C(CN1CCC(C(=O)c2ccc(F)cc2)CC1)Nc1ccc(C2CCCCC2)cc1 [Compound 292, hydrochloride]", 6.96],
  ["O=C(CN1CCC2(CC1)C(=O)NCN2c1ccccc1)Nc1ccc(C2CCCCC2)cc1 [Compound 269]", 6.10],
  ["O=C(CN1CCC(n2c(=O)[nH]c3ccccc32)CC1)NCc1ccc(F)cc1F [Compound 332, reference compound]", 6.21],
  ["CCCCOc1ccc2ccc(NC(=O)CN3CCC(n4c(=O)[nH]c5ccccc54)CC3)cc2c1 [Compound 343, reference compound]", 6.96],
  ["CCOC(=O)Cc1ccc(NC(=O)CN2CCC(n3c(=O)[nH]c4ccccc43)CC2)cc1 [Compound 261]", 6.23]
]}

====

assayed-system: Rat NPY5 receptor (Rattus norvegicus, UniProt Q63634)
test-method-notes: Rat NPY5 receptor binding assay ([125I]PYY, membrane protein)
conditions-used: rNPY5 IC50, [125I]PYY
Counter-ions that a name gives are not always drawn.

{"columns": ["compound", "assayed-system", "measure-unit", "IC50"],
 "data": [
  ["CCCOC1(c2ccccc2)CCN(CC(=O)Nc2ccc(C3CCCCC3)cc2)CC1 [Compound 294, hydrochloride]", "Rat NPY5 receptor (Rattus norvegicus, UniProt Q63634)", "nM", 50],
  ["Cc1ccc(C2(O)CCN(CC(=O)Nc3ccc(C4CCCCC4)cc3)CC2)cc1 [Compound 298, hydrochloride]", "Rat NPY5 receptor (Rattus norvegicus, UniProt Q63634)", "nM", 44],
  ["CC(=O)NCC1(c2ccccc2)CCN(CC(=O)Nc2ccc(C3CCCCC3)cc2)CC1.O=C(O)C(=O)O", "Rat NPY5 receptor (Rattus norvegicus, UniProt Q63634)", "nM", 32],
  ["CCC(=O)C1(c2ccccc2)CCN(CC(=O)Nc2ccc(C3CCCCC3)cc2)CC1.Cl [Compound 303, hydrochloride]", "Rat NPY5 receptor (Rattus norvegicus, UniProt Q63634)", "nM", 6],
  ["N#CC1(c2ccccc2)CCN(CC(=O)Nc2ccc(C3CCCCC3)cc2)CC1 [Compound 295, hydrochloride]", "Rat NPY5 receptor (Rattus norvegicus, UniProt Q63634)", "nM", 4.5],
  ["O=C(Nc1ccc(-c2ccccc2)cc1)C(c1ccccc1)N1CCC(n2c(=O)[nH]c3ccccc32)CC1 (centres unmarked)", "Rat NPY5 receptor (Rattus norvegicus, UniProt Q63634)", "nM", 24],
  ["CCC(=O)C1(c2ccccc2)CCN(CC(=O)Nc2ccc(-c3ccccc3)cc2)CC1 [Compound 317, hydrochloride]", "Rat NPY5 receptor (Rattus norvegicus, UniProt Q63634)", "nM", 11],
  ["O=C(Nc1ccc(C2CCCCC2)cc1)C(c1ccccc1)N1CCC(n2c(=O)[nH]c3ccccc32)CC1 (centres unmarked)", "Rat NPY5 receptor (Rattus norvegicus, UniProt Q63634)", "nM", 20]
]}
